# assay_system: human Cot/Tpl2 kinase (Homo sapiens, UniProt P41279)
# Construct: human Cot/Tpl2 kinase construct encoding residues 30-398; 6His (N); made in house; host or cells: Sf9 insect cells, baculovirus system (BD Biosciences)
# Sequence (P41279 30-398): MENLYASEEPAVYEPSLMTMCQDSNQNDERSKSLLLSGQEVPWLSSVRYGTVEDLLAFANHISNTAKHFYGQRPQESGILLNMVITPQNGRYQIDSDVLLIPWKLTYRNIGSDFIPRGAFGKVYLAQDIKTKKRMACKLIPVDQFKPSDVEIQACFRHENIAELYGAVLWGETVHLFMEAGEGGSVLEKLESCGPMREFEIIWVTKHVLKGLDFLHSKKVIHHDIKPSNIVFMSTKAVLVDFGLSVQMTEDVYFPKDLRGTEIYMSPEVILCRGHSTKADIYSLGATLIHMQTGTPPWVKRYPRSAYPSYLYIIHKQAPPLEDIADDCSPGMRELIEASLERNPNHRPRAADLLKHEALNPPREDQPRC
# experiment_notes: Tpl2/Cot kinase assay: GST-MEK1 phosphorylation detected by ELISA (DELFIA Eu)
# Format: biochemical
# protocol_conditions: Table 2; Tpl2/Cot kinase, GST-MEK1 substrate, 50 uM ATP
Reported IC50 values for a set of molecules
Express the result in nM but write the number alone.

These recorded examples may help you get a feel for the data.
{"cpd_smiles": "N#Cc1cnc2c(Br)cc(NCc3cn(CCOCCOCCO)nn3)cc2c1Nc1ccc(F)c(Cl)c1", "IC50 / nM": 140}
{"cpd_smiles": "COc1cc(NCc2cccnc2)cc2c(Nc3ccc(F)c(Cl)c3)c(C#N)cnc12", "IC50 / nM": 1100}
{"cpd_smiles": "N#Cc1cnc2c(Br)cc(NCc3cncn3CCN3CCOCC3)cc2c1Nc1ccc(F)c(Cl)c1", "IC50 / nM": 160}

Would you kindly look at the next entry?
Quick check: IC50 of N#Cc1cnc2c(Cl)cc(NCc3cncn3O)cc2c1Nc1ccc(F)c(Cl)c1 ?
110

---

# assay_system: human Cot/Tpl2 kinase (Homo sapiens)
# Construct: human Cot/Tpl2 kinase construct encoding residues 30-398; 6His (N); made in house; host or cells: Sf9 insect cells, baculovirus system (BD Biosciences)
# experiment_notes: Tpl2/Cot kinase assay: GST-MEK1 phosphorylation detected by ELISA (DELFIA Eu)
# Type: biochemical
# protocol_conditions: Table 2; Tpl2/Cot kinase, GST-MEK1 substrate, 50 uM ATP
measure_name: pIC50
pIC50 field: float, defined as -log10 of concentration (mol/L).

Worked examples follow.
{"compound": "CC(C)(C)OC(=O)N1CCN(CCCn2cc(CNc3cc(Cl)c4ncc(C#N)c(Nc5ccc(F)c(Cl)c5)c4c3)nn2)CC1", "pIC50": 6.64}
{"compound": "N#Cc1cnc2c(Cl)cc(NCc3cn(CC4CCCNC4)nn3)cc2c1Nc1ccc(F)c(Cl)c1 (stereo not shown)", "pIC50": 7.32}
{"compound": "N#Cc1cnc2ccc(NCCN3CCOCC3)cc2c1Nc1cccc(Cl)c1", "pIC50": 6.16}
{"compound": "N#Cc1cnc2ccc(NCc3ccccc3)cc2c1NC1CCCC1", "pIC50": 4.67}
{"compound": "N#Cc1cnc2ccc(NCc3cccnc3)cc2c1Nc1cccc(Cl)c1", "pIC50": 7.05}

I have this compound here, CN(C)CCc1nc[nH]c1CNc1cc(Br)c2ncc(C#N)c(Nc3ccc(F)c(Cl)c3)c2c1 , and I need its recorded pIC50.
6.62

Entry under review: CN(CCn1cc(CN(Cc2cn(CCN(C)C(=O)OC(C)(C)C)nn2)c2cc(Br)c3ncc(C#N)c(Nc4ccc(F)c(Cl)c4)c3c2)nn1)C(=O)OC(C)(C)C . Reported pIC50?
5.33

So what does the record say about pIC50 for CC(=O)Nc1ccc(-n2cc(CNc3cc(Cl)c4ncc(C#N)c(Nc5ccc(F)c(Cl)c5)c4c3)nn2)cc1 ?
7.46

Name the recorded pIC50 for N#Cc1cnc2c(Cl)cc(NCC(=O)NCc3ccccn3)cc2c1Nc1ccc(F)c(Cl)c1 .
6.48

Value lookup for pIC50; key = N#Cc1cnc2c(Br)cc(NCc3cn(-c4ccncc4)nn3)cc2c1Nc1ccc(F)c(Cl)c1
8.26

// query pIC50 value for entry CC(C)(C)Nc1c(C#N)cnc2ccc(NCc3ccc(S(N)(=O)=O)cc3)cc12
4.66

What value of pIC50 has been recorded for this entry: Cc1ncn(C)c1CNc1ccc2ncc(C#N)c(Nc3ccc(F)c(Cl)c3)c2c1
6.70

Look at this compound and give its reported pIC50. Cc1c(CNc2ccc3ncc(C#N)c(Nc4ccc(F)c(Cl)c4)c3c2)ncn1C
8.49

Given the compound CC(O)c1cc(NCc2cnc[nH]2)cc2c(Nc3ccc(F)c(Cl)c3)c(C#N)cnc12 (stereo not shown) , what is its reported pIC50?
6.59

Which pIC50 value belongs to N#Cc1cnc2c(Br)cc(NCc3cc(-c4ccccc4)[nH]n3)cc2c1Nc1ccc(F)c(Cl)c1 ?
6.48

Tell me the measured pIC50 of CN(C)C(=O)c1cc(N)cc2c(Nc3cccc(Cl)c3)c(C#N)cnc12 , please.
5.08

---

# assay_system: human Cot/Tpl2 kinase (Homo sapiens)
# Construct: human Cot/Tpl2 kinase construct encoding residues 30-398; 6His (N); made in house; host or cells: Sf9 insect cells, baculovirus system (BD Biosciences)
# experiment_notes: Tpl2/Cot kinase assay: GST-MEK1 phosphorylation detected by ELISA (DELFIA Eu)
# Type: biochemical
# protocol_conditions: Tpl2/Cot kinase, GST-MEK1 substrate, 50 uM ATP, 1 h at 30° C.; Table 2
measure_name: IC50 (µM)
State the answer as a number, implicitly in µM.

Sample records with IC50:
{"compound": "CC#CCn1cc(CNc2cc(Cl)c3ncc(C#N)c(Nc4ccc(F)c(Cl)c4)c3c2)nn1 [Example 995]", "assay_system": "human Cot/Tpl2 kinase (Homo sapiens)", "numeric_result": 0.24}
{"compound": "CC(C)(C)OC(=O)N1CCC(n2cc(CNc3ccc4ncc(C#N)c(NC5CCCCC5)c4c3)nn2)CC1 [Example 968]", "assay_system": "human Cot/Tpl2 kinase (Homo sapiens)", "numeric_result": 0.67}

Okay, next one:
IC50 lookup needed for CC(C)N1C2CCC1CC(n1cc(CNc3cc(Cl)c4ncc(C#N)c(Nc5ccc(F)c(Cl)c5)c4c3)nn1)C2 (stereo not shown) [Example 1049] , thanks.
0.42

---

The following molecules are shown together with reported IC50 values.
# assay_system: human Cot/Tpl2 kinase (Homo sapiens, UniProt P41279)
# Construct: human Cot/Tpl2 kinase construct encoding residues 30-398; 6His (N); made in house; host or cells: Sf9 insect cells, baculovirus system (BD Biosciences)
# experiment_notes: Tpl2/Cot kinase assay: GST-MEK1 phosphorylation detected by ELISA (DELFIA Eu)
# Type: biochemical
# protocol_conditions: Tpl2/Cot kinase, GST-MEK1 substrate, 50 uM ATP
Express the result in nM but write the number alone.

See these solved cases before continuing.
{"molecule": "N#Cc1cnc2c(Cl)cc(NCc3cncn3CCN3CCOCC3)cc2c1Nc1ccc(F)c(Cl)c1", "IC50 / nM": 62}
{"molecule": "CN(C)C(=O)Cn1cc(CNc2cc(Cl)c3ncc(C#N)c(Nc4ccc(F)c(Cl)c4)c3c2)nn1", "IC50 / nM": 5}
{"molecule": "N#Cc1cnc2c(Cl)cc(NCC3CCCN(C(=O)CN4CCCCCC4)C3)cc2c1Nc1ccc(F)c(Cl)c1 (stereo not drawn)", "IC50 / nM": 620}
{"molecule": "CC(C)(C)OC(=O)N1CCC(CCn2cc(CNc3cc(Br)c4ncc(C#N)c(Nc5ccc(F)c(Cl)c5)c4c3)nn2)CC1", "IC50 / nM": 130}
{"molecule": "CN1CCC(CNc2cc(Cl)c3ncc(C#N)c(Nc4ccc(F)c(Cl)c4)c3c2)CC1", "IC50 / nM": 1910}

Given the entry CCN1CCCC(Nc2cc(Cl)c3ncc(C#N)c(Nc4ccc(F)c(Cl)c4)c3c2)C1 (stereo not drawn) , report its measured IC50.
1190

For the molecule shown here, N#Cc1cnc2c(Br)cc(NCc3cn(-c4ccncc4)nn3)cc2c1Nc1ccc(F)c(Cl)c1 , give the reported IC50.
5.5

GET /values?readout=IC50&item= CC(=O)N1CCC(Nc2cc(Cl)c3ncc(C#N)c(Nc4ccc(F)c(Cl)c4)c3c2)C1 (stereo not drawn)
150

Need IC50, item N#Cc1cnc2c(Br)cc(NCc3cncn3CCN3CCOCC3)cc2c1Nc1ccc(F)c(Cl)c1
160

What does the record list as IC50 for CS(=O)(=O)NCCCn1cc(CN(C=O)c2cc(Cl)c3ncc(C#N)c(Nc4ccc(F)c(Cl)c4)c3c2)nn1 ?
830

Returns the measured IC50 for the input molecule. Input: CC(=O)N1CCC(n2cc(CNc3cc(Br)c4ncc(C#N)c(Nc5ccc(F)c(Cl)c5)c4c3)nn2)CC1
6.1

Recorded IC50 for COCCn1cc(CNc2cc(Br)c3ncc(C#N)c(Nc4ccc(F)c(Cl)c4)c3c2)nn1 , please?
18

Quick one: IC50 for CCN1CCC(Cn2cc(CNc3cc(Cl)c4ncc(C#N)c(Nc5ccc(F)c(Cl)c5)c4c3)nn2)CC1 ?
35

Reported IC50, molecule N#Cc1cnc2c(Br)cc(NCc3cn(-c4ccncc4)cn3)cc2c1Nc1ccc(F)c(Cl)c1 : ____
23

---

# assay_system: human Cot/Tpl2 kinase (Homo sapiens, UniProt P41279)
# Construct: human Cot/Tpl2 kinase construct encoding residues 30-398; 6His (N); made in house; host or cells: Sf9 insect cells, baculovirus system (BD Biosciences)
# experiment_notes: Tpl2/Cot kinase assay: GST-MEK1 phosphorylation detected by ELISA (DELFIA Eu)
# Type: biochemical
# protocol_conditions: Tpl2/Cot kinase, GST-MEK1 substrate, 50 uM ATP, 1 h at 30° C.; Table 2
# Protocol: Sf9 cells expressing the kinase were lysed in 50 mM NaPhosphate pH=8; 300 mM NaCl; 5 mM imidazole; 0.1 mM EGTA; 25 mM beta-glycerophosphate; 1% TX-100, 1% glycerol; 6 mM beta-mercaptoethanol and protease inhibitors. […] Tpl2/Cot activity was directly assayed using GST-MEK1 as a substrate. GST-MEK1 phosphorylation on serine residues 217 and 221 was detected by ELISA. […] After a final wash, Eu detection solution was added to each well and the Eu signal was measured in a Wallac Victor^2 Multilabel Counter. […]
measure_name: pIC50
# pIC50 is unitless: minus log10 of the molar concentration; print number only

Illustrative cases are given below, each with its answer.
{"compound": "N#Cc1cnc2c(Cl)cc(NCc3cn(C4CCCN(CC(F)(F)C(F)F)CC4)nn3)cc2c1Nc1ccc(F)c(Cl)c1 (stereo not shown)", "numeric_result": 6.37}
{"compound": "N#Cc1cnc2c(Cl)cc(NCc3cn(CCC4CCN(C5CCC5)CC4)nn3)cc2c1Nc1ccc(F)c(Cl)c1", "numeric_result": 6.82}
{"compound": "COC(=O)N1CCC(n2cc(CNc3cc(Cl)c4ncc(C#N)c(Nc5ccc(F)c(Cl)c5)c4c3)nn2)CC1", "numeric_result": 7.62}
{"compound": "N#Cc1cnc2c(Cl)cc(NCC3CCCN(C(=O)CNCc4ccccn4)C3)cc2c1Nc1ccc(F)c(Cl)c1 (stereo not shown)", "numeric_result": 5.77}
{"compound": "N#Cc1cnc2c(Cl)cc(NCc3cn(CC(O)c4ccccn4)nn3)cc2c1Nc1ccc(F)c(Cl)c1 (stereo not shown)", "numeric_result": 7.32}

Now let's try a different one.
Returns the measured pIC50 for the input compound. Input: N#Cc1cnc2ccc(NCc3cn(C4CCNCC4)nn3)cc2c1NC1CCCCC1
6.89
